Reference for the values: ChEMBL document CHEMBL1152435

- Measurement protocol: Drug level in DIO-C57/B6 mouse liver in stress free condition at 30 mg/kg in food containing 0.5 mg/gram of high fat diet for 31 days measured on day 4 at 10 pm
- Type: ADME, organism-based
- Set-up: dose 30 mg/kg
- Run conditions: po, read-out: Drug uptake
Quantity kind: concentration at 744 h (ng/g)
# unit: ng/g | format: bare number

Dear colleague, I am looking for the recorded concentration at 744 h of the following compound: C[C@@H]1CN(c2ccc(F)cc2C(F)(F)F)CCN1S(=O)(=O)c1ccc(C(N)=O)cc1Cl
9540

---

- Measurement protocol: Drug level in DIO-C57/B6 mouse serum in stress free condition at 30 mg/kg in food containing 0.5 mg/gram of high fat diet for 31 days measured on day 4 at 10 pm
- Format: ADME, organism-based
- Set-up: dose 30 mg/kg
- Run conditions: po, read-out: Drug uptake
Quantity kind: concentration at 744 h (ng/mL)
Respond with the bare value in ng/mL.

GET /values?readout=concentration at 744 h&item= C[C@@H]1CN(c2ccc(F)cc2C(F)(F)F)CCN1S(=O)(=O)c1ccc(C(N)=O)cc1Cl
1090
